B1: CPEB3 Ribozyme (parent)
chain: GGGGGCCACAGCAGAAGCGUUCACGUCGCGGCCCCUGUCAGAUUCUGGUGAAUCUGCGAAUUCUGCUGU

Variants of: B1
Assay: self-cleavage, relative activity (ratio to wild type); higher = more cleavage; co-transcriptional
For each record, write down the corresponding self-cleavage.
Answer with a number only.

Please give the measured self-cleavage for this variant: G11C G31U
0.536

Try this variant too: C9A C24A
0.891

Try this variant too: C57A U67C
0.25

Try this variant too: U20A G50A
0.147

Try this variant too: G48U A60U
0.561

Try this variant too: G31U C32A
0.321
